Assign remaining activity at 100 µM to each entry below.
biological target: IRR (Homo sapiens, UniProt P14616); experiment: Kinase profiling IRR; type: biochemical; details: 100 micromolar inhibitor concentration; 100 is no change; read-out: residual kinase activity, IRR
Sequence (P14616 27-1297, species assumed): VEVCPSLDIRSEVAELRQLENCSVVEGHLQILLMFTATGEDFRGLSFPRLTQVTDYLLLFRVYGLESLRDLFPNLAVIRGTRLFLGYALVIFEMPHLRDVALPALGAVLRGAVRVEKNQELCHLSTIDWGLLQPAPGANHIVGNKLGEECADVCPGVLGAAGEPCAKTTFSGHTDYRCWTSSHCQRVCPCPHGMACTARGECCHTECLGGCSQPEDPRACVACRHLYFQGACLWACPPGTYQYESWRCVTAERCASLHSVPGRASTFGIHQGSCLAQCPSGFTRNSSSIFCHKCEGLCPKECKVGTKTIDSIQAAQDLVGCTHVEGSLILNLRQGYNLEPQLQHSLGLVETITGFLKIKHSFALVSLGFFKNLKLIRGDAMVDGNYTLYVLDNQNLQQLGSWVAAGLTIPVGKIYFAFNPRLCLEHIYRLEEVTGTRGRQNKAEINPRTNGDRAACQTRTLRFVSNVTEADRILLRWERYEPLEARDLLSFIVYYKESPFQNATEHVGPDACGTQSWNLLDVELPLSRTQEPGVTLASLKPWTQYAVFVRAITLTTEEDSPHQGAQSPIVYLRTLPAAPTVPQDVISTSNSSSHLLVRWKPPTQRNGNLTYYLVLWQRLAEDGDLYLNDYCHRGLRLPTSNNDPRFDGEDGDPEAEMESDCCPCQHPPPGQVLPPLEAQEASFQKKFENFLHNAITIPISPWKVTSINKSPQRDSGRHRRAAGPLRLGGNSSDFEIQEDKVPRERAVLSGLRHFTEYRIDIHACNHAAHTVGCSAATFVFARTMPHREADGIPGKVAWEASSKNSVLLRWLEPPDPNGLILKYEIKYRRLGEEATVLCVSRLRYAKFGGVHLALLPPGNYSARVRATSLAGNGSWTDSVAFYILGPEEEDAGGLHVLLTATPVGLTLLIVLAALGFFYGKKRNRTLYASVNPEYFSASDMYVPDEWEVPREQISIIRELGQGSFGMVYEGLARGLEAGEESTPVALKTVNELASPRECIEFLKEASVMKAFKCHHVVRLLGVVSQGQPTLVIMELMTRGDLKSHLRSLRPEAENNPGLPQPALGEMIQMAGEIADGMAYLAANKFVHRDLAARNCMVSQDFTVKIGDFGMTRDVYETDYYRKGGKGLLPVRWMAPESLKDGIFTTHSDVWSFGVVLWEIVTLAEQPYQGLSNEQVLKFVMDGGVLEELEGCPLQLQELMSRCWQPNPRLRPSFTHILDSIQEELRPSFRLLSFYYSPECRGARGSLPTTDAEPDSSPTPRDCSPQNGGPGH
Give bare numbers, in %.

CC(=O)Nc1nc2ccc(C#N)cc2s1; 42

I have 4 molecules here; please give me remaining activity at 100 µM for each one.
1. CC(=O)Nc1nc2cc(C(F)(F)F)ccc2s1
2. COc1ccc2sc(NC(C)=O)nc2c1
3. CC(=O)Nc1nc2cc(F)ccc2s1
4. CC(=O)Nc1nc2ccc(C(F)(F)F)cc2s1

Output:
61
47
57
49

Input: For CC(=O)Nc1nc2ccc(O)cc2s1 , what is its reported remaining activity at 100 µM?
Output: 34
